Data provenance: patent US10927104B2

- Test system: IL-1β
- assay_overview: PBMC assay, LPS-induced IL-1β (Meso Scale)
- Type: cell-based
- condition_summary: Homo sapiens, compound at 0.1 μM, PBMCs, 100 ng/mL LPS 18-24 hrs
Listed compounds paired with reported inhibition at 0.1 µM
Put your answer as a value accompanied by its unit after it.

Worked set:
Cc1cnc(Nc2ccc(OCCCNC(=O)NCc3ccc(COc4cccc5c4CN([C@H]4CCC(=O)NC4=O)C5=O)cc3)cc2)nc1Nc1cccc(S(=O)(=O)NC(C)(C)C)c1: 30%
O=C1CCC[C@H](N2Cc3c(OCc4ccc(CN5CCOCC5)c(Cl)c4)cccc3C2=O)C(=O)N1: 91%
Cc1cnc(Nc2ccc(OCCCNCC(=O)NCc3ccc(COc4cccc5c4CN([C@H]4CCCC(=O)NC4=O)C5=O)cc3)cc2)nc1Nc1cccc(S(=O)(=O)NC(C)(C)C)c1: 68%
N#Cc1ccc2c(c1OCc1ccc(CN3CCOCC3)cc1)CN([C@H]1CCCC(=O)NC1=O)C2=O: 22%

[in] Can you share its inhibition at 0.1 µM? I mean this compound: NCc1ccc2c(c1OCc1ccc(CN3CCOCC3)cc1)CN([C@H]1CCCC(=O)NC1=O)C2=O
[out] 69%

[in] Moving on to the next compound: NCc1cccc(COc2cccc3c2CN([C@H]2CCCC(=O)NC2=O)C3=O)c1
[out] 74%

[in] Now try Cc1cnc(Nc2ccc(OCCCNC(=O)NCc3ccc4c(c3OCc3ccc(CN5CCOCC5)cc3)CN([C@H]3CCCC(=O)NC3=O)C4=O)cc2)nc1Nc1cccc(S(=O)(=O)NC(C)(C)C)c1 .
[out] 50%

[in] Next compound: NCc1ccc(COc2cccc3c2CN([C@H]2CCCC(=O)NC2=O)C3=O)cc1
[out] 64%

[in] Can you check O=C1CCC[C@H](N2Cc3c(OCc4ccc(C5CCNCC5)cc4)cccc3C2=O)C(=O)N1 next?
[out] 72%

[in] Similarly, O=C1CCC[C@H](N2Cc3c(OCc4cccc(CN5CCOCC5)c4)cccc3C2=O)C(=O)N1 ?
[out] 52%

[in] Another: O=C1CCC[C@H](N2Cc3c(OCc4ccc(CN5CCOCC5)cc4)cccc3C2=O)C(=O)N1
[out] 83%

###

Reported inhibition at 1 µM values for a set of compounds
- System: TNFα
- assay_overview: PBMC assay, LPS-induced TNFα (Meso Scale)
- Assay type: cell-based
- condition_summary: Homo sapiens, compound at 1 μM, PBMCs, 100 ng/mL LPS 18-24 hrs
Give a bare numeral; the unit % is implied.

Cc1cnc(Nc2ccc(OCCCNCC(=O)NCc3ccc(COc4cccc5c4CN([C@H]4CCC(=O)NC4=O)C5=O)cc3)cc2)nc1Nc1cccc(S(=O)(=O)NC(C)(C)C)c1 [Compound 24]: 10
N#Cc1ccc2c(c1OCc1ccc(CN3CCOCC3)cc1)CN([C@H]1CCCC(=O)NC1=O)C2=O [Compound 19]: 73

Switching to the query record.
[in] Item O=C1CCC[C@H](N2Cc3c(OCc4ccc(CN5CCOCC5)c(Cl)c4)cccc3C2=O)C(=O)N1 [Compound 3] has what recorded inhibition at 1 µM?
[out] 93

###

- System: Molm-13 cells
- assay_overview: Cell viability assay (CellTiter-Glo), Molm-13 proliferation
- Assay type: cell-based
- condition_summary: Homo sapiens, MOLM-13, 72 h; compound at 1 μM; 3 days
Listed compounds paired with reported inhibition at 1 µM
Answers without a unit are incomplete; give the number and then its unit.

Cc1cnc(Nc2ccc(OCCCNC(=O)NCc3ccc(COc4cccc5c4CN([C@H]4CCC(=O)NC4=O)C5=O)cc3)cc2)nc1Nc1cccc(S(=O)(=O)NC(C)(C)C)c1: 99%
Cc1cnc(Nc2ccc(OCCCNC(=O)NCc3ccc4c(c3OCc3ccc(CN5CCOCC5)cc3)CN([C@H]3CCCC(=O)NC3=O)C4=O)cc2)nc1Nc1cccc(S(=O)(=O)NC(C)(C)C)c1: 37%
O=C1CCC[C@H](N2Cc3c(OCCc4ccc(CN5CCOCC5)cc4)cccc3C2=O)C(=O)N1: 66%
NCc1ccc2c(c1OCc1ccc(CN3CCOCC3)cc1)CN([C@H]1CCCC(=O)NC1=O)C2=O: 56%
Cc1cnc(Nc2ccc(OCCCNC(=O)NCc3ccc4c(c3OCc3ccc(CN5CCOCC5)cc3)CN([C@H]3CCC(=O)NC3=O)C4=O)cc2)nc1Nc1cccc(S(=O)(=O)NC(C)(C)C)c1: 30%

[in] Suppose we examine the compound O=C1CCC[C@H](N2Cc3c(OCc4ccc(CN5CCOCC5)c(Cl)c4)cccc3C2=O)C(=O)N1 ; what inhibition at 1 µM value has been reported?
[out] 1%
